# target_desc: T1, human TREM2 (triggering receptor expressed on myeloid cells 2) (human) (UniProt Q9NZC2)
# T1 sequence (looked up): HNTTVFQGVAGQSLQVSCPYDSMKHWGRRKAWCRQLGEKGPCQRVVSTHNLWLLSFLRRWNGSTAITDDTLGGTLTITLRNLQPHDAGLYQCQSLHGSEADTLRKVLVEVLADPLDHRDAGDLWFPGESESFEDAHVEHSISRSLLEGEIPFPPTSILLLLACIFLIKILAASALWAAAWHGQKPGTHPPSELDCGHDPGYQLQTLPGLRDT
# measurement_notes: 2nd screen, 100 nM Ab
# Binding Signal (fold over 6E7 parental antibody) per record follows
All answers are understood in fold, so give the number only.

Observe how each entry below is paired with its result.
{"binder": "6E7 antibody affinity modulation variant V94 (antibody, V domains shown) VH: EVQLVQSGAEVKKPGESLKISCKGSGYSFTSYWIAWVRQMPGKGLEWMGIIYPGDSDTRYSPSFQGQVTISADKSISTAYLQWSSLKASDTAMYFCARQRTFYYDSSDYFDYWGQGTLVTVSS VL: DIQMTQSPSSVSASVGDRVTITCRASQGISSWLAWYQQKPGKAPKLLIYAAASLQNGVPSRFSGSGSGTDFTLTISSLQPEDFATYFCQQADSFPRTFGQGTKLEIK", "value": 0.87}
{"binder": "6E7 antibody affinity modulation variant V71 (antibody, V domains shown) VH: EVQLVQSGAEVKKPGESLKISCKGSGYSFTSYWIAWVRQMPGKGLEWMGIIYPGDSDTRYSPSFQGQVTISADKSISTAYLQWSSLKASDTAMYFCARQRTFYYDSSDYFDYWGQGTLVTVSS VL: DIQMTQSPSSVSASVGDRVTITCRASQGISSWLAWYQQKPGKAPKLLIYAASSLQNGVPSRFSGSGSGTDFTLTISSLQPEDFATYFCQQADSEPRTFGQGTKLEIK", "value": 0.48}
{"binder": "6E7 antibody affinity modulation variant V34 (antibody, V domains shown) VH: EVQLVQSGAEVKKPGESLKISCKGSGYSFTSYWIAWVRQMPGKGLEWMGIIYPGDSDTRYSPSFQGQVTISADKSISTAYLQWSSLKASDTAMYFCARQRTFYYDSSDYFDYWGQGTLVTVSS VL: DIQMTQSPSSVSASVGDRVTITCRASQGISSWLAWYQQKPGKAPKLLIYAASSLQDGVPSRFSGSGSGTDFTLTISSLQPEDFATYFCQQADSFPRTFGQGTKLEIK", "value": 1.02}
{"binder": "6E7 antibody affinity modulation variant V68 (antibody, V domains shown) VH: EVQLVQSGAEVKKPGESLKISCKGSGYSFTSYWIAWVRQMPGKGLEWMGIIYPGDSDTRYSPSFQGQVTISADKSISTAYLQWSSLKASDTAMYFCARQRTFRYDSSDYFDYWGQGTLVTVSS VL: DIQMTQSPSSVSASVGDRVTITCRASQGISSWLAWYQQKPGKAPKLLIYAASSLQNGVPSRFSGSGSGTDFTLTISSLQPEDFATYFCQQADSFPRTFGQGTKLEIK", "value": 0.43}
{"binder": "6E7 antibody affinity modulation variant V80 (antibody, V domains shown) VH: EVQLVQSGAEVKKPGESLKISCKGSGYSFTSYWIAWVRQMPGKGLEWMGIIYPGDSDTRYSPSFQGQVTISADKSISTAYLQWSSLKASDTAMYFCARQRNFYYDSSDYFDYWGQGTLVTVSS VL: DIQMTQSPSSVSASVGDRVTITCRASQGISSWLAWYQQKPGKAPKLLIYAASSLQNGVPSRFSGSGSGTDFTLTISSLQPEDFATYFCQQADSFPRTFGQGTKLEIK", "value": 0.5}
{"binder": "6E7 antibody affinity modulation variant V44 (antibody, V domains shown) VH: EVQLVQSGAEVKKPGESLKISCKGSGYSFTSYWIAWVRQMPGKGLEWMGIIYPSDSDTRYSPSFQGQVTISADKSISTAYLQWSSLKASDTAMYFCARQRTFYYDSSDYFDYWGQGTLVTVSS VL: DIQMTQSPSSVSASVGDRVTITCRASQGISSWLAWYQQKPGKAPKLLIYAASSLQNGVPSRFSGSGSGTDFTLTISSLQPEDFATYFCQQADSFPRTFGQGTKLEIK", "value": 0.52}

Inquiry: For the binder 6E7 antibody affinity modulation variant V18 (antibody, V domains shown) VH: EVQLVQSGAEVKKPGESLKISCKGSGYSFTSYHIAWVRQMPGKGLEWMGIIYPGDSDTRYSPSFQGQVTISADKSISTAYLQWSSLKASDTAMYFCARQRTFYYDSSDYFDYWGQGTLVTVSS VL: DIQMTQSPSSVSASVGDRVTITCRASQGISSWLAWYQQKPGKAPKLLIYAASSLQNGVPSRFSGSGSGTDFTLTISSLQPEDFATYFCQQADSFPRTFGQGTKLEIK , what Binding Signal (fold over 6E7 parental antibody) is on record?
Reply text: 0.42

Inquiry: For the binder 6E7 antibody affinity modulation variant V70 (antibody, V domains shown) VH: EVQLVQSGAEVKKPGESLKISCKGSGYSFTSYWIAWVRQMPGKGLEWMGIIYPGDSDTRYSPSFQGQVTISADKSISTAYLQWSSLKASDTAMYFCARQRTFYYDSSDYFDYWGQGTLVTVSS VL: DIQMTQSPSSVSASVGDRVTITCRASQGISSWLAWYQQKPGKAPKLLIYAAGSLQNGVPSRFSGSGSGTDFTLTISSLQPEDFATYFCQQADSFPRTFGQGTKLEIK , what Binding Signal (fold over 6E7 parental antibody) is on record?
Reply text: 0.84

Inquiry: For the binder 6E7 antibody affinity modulation variant V19 (antibody, V domains shown) VH: EVQLVQSGAEVKKPGESLKISCKGSGYSFTSSWIAWVRQMPGKGLEWMGIIYPGDSDTRYSPSFQGQVTISADKSISTAYLQWSSLKASDTAMYFCARQRTFYYDSSDYFDYWGQGTLVTVSS VL: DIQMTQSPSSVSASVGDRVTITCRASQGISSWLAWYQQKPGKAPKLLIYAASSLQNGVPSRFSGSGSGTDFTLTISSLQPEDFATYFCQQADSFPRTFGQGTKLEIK , what Binding Signal (fold over 6E7 parental antibody) is on record?
Reply text: 0.48

Inquiry: For the binder 6E7 antibody affinity modulation variant V46 (antibody, V domains shown) VH: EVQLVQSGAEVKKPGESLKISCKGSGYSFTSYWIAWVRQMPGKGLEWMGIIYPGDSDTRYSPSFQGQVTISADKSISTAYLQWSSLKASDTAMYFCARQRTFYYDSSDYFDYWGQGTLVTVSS VL: DIQMTQSPSSVSASVGDRVTITCRASQGISSWLAWYQQKPGKAPKLLIYAASTLQNGVPSRFSGSGSGTDFTLTISSLQPEDFATYFCQQADSFPRTFGQGTKLEIK , what Binding Signal (fold over 6E7 parental antibody) is on record?
Reply text: 0.96
